system: K-562 leukemia; test: NCI tumour cell line growth inhibition, 48 h
Listed below: TGI values for each entry.

compound	TGI
CC#CC#C/C=C1/C=CC2(CCCCO2)O1 (stereo unspecified)	> 100 µM
CC(C)Cc1cc(-c2cccn2C)c(C#N)c(=O)[nH]1	> 100 µM
CCCCCCCCC/C=C1/CC(CO)(COC(=O)C2CCCCC2)OC1=O (stereo unspecified)	> 100 µM
CCC(/C(=N/NC(=O)C[N+](C)(C)C)c1ccccc1)C1OC(=O)c2ccccc21 (stereo unspecified)	> 100 µM
Clc1cc2ns[s+]c2cc1Cl	> 100 µM
Cc1c2cc[n+](C)cc2c(C)c2c1[nH]c1ccc(OC(C)(C)C)cc12	> 100 µM
COc1cc(/C=[N+](\[O-])c2ccccc2Cl)ccc1OC(=S)S	> 100 µM
CCOC(=O)C1=C(C)NC(c2ccccc2)=C(C(=O)OCc2ccccc2)C1C#Cc1ccccc1 (stereo unspecified)	> 100 µM
OC(CBr)C(O)C(O)C(O)CBr (stereo unspecified)	> 100 µM
CC(C)c1cccc(C(C)C)c1NC(=O)/C(Cc1nc2ccc(Cl)cc2[nH]c1=O)=N\NC(=O)C[N+](C)(C)C	> 100 µM
C=CCNc1nc2c(N)ncnc2s1	> 10 µM
CC(C)C(N=C1CC2CCC1(C(=O)Nc1ccccc1O)C2(C)C)c1ccccc1 (stereo unspecified)	> 10 µM
Cc1cc(C(=O)NOCCO)c(Nc2ccc(I)cc2F)n(C)c1=O	> 100 µM
O=S1c2ccccc2N=C(c2cccs2)CC1c1ccccc1O (stereo unspecified)	> 100 µM
C#CCN1C(=O)CN2C(Cl)(Cl)C2(c2ccccc2)c2cc(Cl)ccc21 (stereo unspecified)	> 100 µM
c1ccc(C(OCCN2CC3CCC(C2)N3)c2ccccc2)cc1	> 100 µM
COc1ccc(N2CCN(c3nc(-c4ccccn4)nc4sc5c(c34)CCCCCC5)CC2)cc1	> 100 µM
Nc1ccc(Oc2ccc(C34CC5CC(C3)CC(c3ccc(Oc6ccc(N)c(O)c6)cc3)(C5)C4)cc2)cc1O	> 100 µM
CC1(/C=C/c2ccc(-c3ccccc3)cc2)CCn2cnc3ncnc(c32)N1O (stereo unspecified)	> 66.7 µM
O=C(COc1ccc(Cl)cc1Cl)NNc1ccc([N+](=O)[O-])cc1	> 100 µM
COc1cc2cc(C(=O)Nc3ccccc3)c(N)nc2cc1OC	> 100 µM
CCOP(=O)(OCC)C(Cc1cn(S(=O)(=O)c2ccc(C)cc2)cn1)C(=O)O (stereo unspecified)	> 100 µM
Cc1ccc2c(=O)cc(-c3ccccc3)[nH]c2n1	6.57 µM
OCC1OC(NO)C(O)C(O)C1O (stereo unspecified)	> 100 µM
CCN(Cc1c(F)cccc1C(F)(F)F)c1ccc(CO)c(Cl)c1	13 µM
COC(=O)c1cc(NC(=O)Cn2c3ccccc3c3ccccc32)cn1C	> 100 µM
O=C(N/N=C/c1ccc(O)cc1)NNCCO	> 100 µM
CC(C)(C)c1cc([Si](C)(C)C)c(C#N)c([Si](C)(C)C)c1	> 100 µM
N/C(=N/O)NOCCC(N)C(=O)O (stereo unspecified)	> 100 µM
Cn1c(=Nc2ccccc2[N+](=O)[O-])sc2ccccc21	> 100 µM
C#CCn1c(=O)c2cc(OC)c(OC)cc2n(CC#C)c1=O	> 10 µM
O=C1C(Nc2ccc(S(=O)(=O)Nc3cnc4ccccc4n3)cc2)=CC(=Nc2ccc(S(=O)(=O)Nc3cnc4ccccc4n3)cc2)c2ccccc21	> 74.9 µM
Nc1cc2c3ccccc3ccc2c2ccccc12	> 100 µM
CNC(=O)c1cc(Oc2ccc(NC(=O)Nc3ccc(Cl)c(C(F)(F)F)c3)cc2)ccn1	> 100 µM
c1ccc(C2SCc3nc4ccccc4n32)cc1 (stereo unspecified)	> 100 µM
NS(=O)(=O)c1ccc(NC(=O)Nc2cccc3ccccc23)cc1	> 100 µM
